B1: mRNA-splicing (parent)
chain: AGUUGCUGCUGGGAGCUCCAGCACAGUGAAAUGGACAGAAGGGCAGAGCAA

Variants of: B1
Experiment: exon inclusion enrichment index; higher = more inclusion; WT1 exon 5 minigene, HEK293
Assign 1.0 whenever exon inclusion enrichment index does not fall below 0.7; assign 0.0 whenever it does.

Exam item: decide whether the reported exon inclusion enrichment index for AGUUGCUGCUGGGAGCUCCAGCACAGUGAAAUGGACAGAAGGGCAGCCCAA [A47C G48C] is at least 0.7. 0.0

Param item: AGUUGAAGAAGGGAGCUCCAGCACAGAAAAAUGGACAGAAGGGCAGAGCAA [C6A U7A C9A U10A U27A G28A] 1.0

Param item: AGUUUCUUUUGGGAGCUCCAGCACAGAUAAAUGGACAGAAGGGCAGAGCAA [G5U G8U C9U U27A G28U] 0.0

Param item: AGUUCUACUCGGGAGCUCCAGCACAGUGAAAUGGACAGAAGGGCAGAGCAA [G5C C6U U7A G8C C9U U10C] 1.0

Param item: AGUUACAUCCGGGAGCUCCAGCACAGUGAAAUGGACAGAAGGGCAGAGCAA [G5A U7A G8U U10C] 1.0

Param item: AGUUCGCGCCGGGAGCUCCAGCACAGUGACAUGGACAGAAGGGCAGAGCAA [G5C C6G U7C U10C A30C] 1.0

Param item: AGUUAUAUAUGGGAGCUCCAGCACAGUGAAACAGACAGAAGGGCAGAGCAA [G5A C6U U7A G8U C9A U32C G33A] 0.0

Param item: AGUUACCACCGGGAGCUCCAGCACAGUGAAAUGGACAGACUGGCAGAGCAA [G5A U7C G8A U10C A40C G41U] 1.0

Param item: AGUUGCUGCUGGGAGCUCCAGCACAGUGAAGGGGACAGAAGGGCAGAGCAA [A31G U32G] 0.0

Param item: AGUUCACACAGGGAGCUCCAGCACAGUGAAAUGGACAGAAGGGCAGACCAA [G5C C6A U7C G8A U10A G48C] 0.0

Param item: AAAUCGCGCCGGGAGCUCCAGCACAGUGAAAUGGACAGAAGGGCAGAGCAA [G2A U3A G5C C6G U7C U10C] 1.0

Param item: AGUUAUAUAUGGGAGCUCCAGCACGGUGAAAUGGACAGAAGGGCAGAGCAA [G5A C6U U7A G8U C9A A25G] 0.0

Param item: AGUUUCUUUUGGGAGCUCCAGCGAAGUGAAAUGGACAGAAGGGCAGAGCAA [G5U G8U C9U A23G C24A] 0.0

Param item: AGUUAGGGAGGGGAGCUCCAGCACAGUGAAAUGGACAGAAGGGCAGAGCAA [G5A C6G U7G C9A U10G] 0.0

Param item: AGUUAGGGAUGGGACAUCCAGCACAGUGAAAUGGACAGAAGGGCAGAGCAA [G5A C6G U7G C9A G15C C16A] 0.0

Param item: AGUUCGCGCCGGGAUUUCCAGCACAGUGAAAUGGACAGAAGGGCAGAGCAA [G5C C6G U7C U10C G15U C16U] 1.0

Param item: AGUUCACACAGGGAGCUCCAGCACAGUGAAAUGGACUCAAGGGCAGAGCAA [G5C C6A U7C G8A U10A A37U G38C] 0.0

Param item: AGUUCACACAGGGAGUCCCAGCACAGUGAAAUGGACAGAAGGGCAGAGCAA [G5C C6A U7C G8A U10A C16U U17C] 0.0

Param item: AGUUGACGACGGGAGUACCAGCACAGUGAAAUGGACAGAAGGGCAGAGCAA [C6A U7C C9A U10C C16U U17A] 1.0

Param item: AGUUGACGACGGGAGAACCAGCACAGUGAAAUGGACAGAAGGGCAGAGCAA [C6A U7C C9A U10C C16A U17A] 1.0

Param item: AGUUGCUGGAGGGAGCUCCAGCACAGUGAAAUGGACAGAAGGGCAGAGCAA [C9G U10A] 0.0

Param item: AGUUCUUCUCCGGAGCUCCAGCACAGUGAAAUGGACAGAAGGGCAGAGCAA [G5C C6U G8C C9U U10C G11C] 1.0

Param item: AGUUCUUCUCGGGAGCUCCAGAACAGUGAAAUGGACAGAAGGGCAGAGCAA [G5C C6U G8C C9U U10C C22A] 1.0

Param item: AGUUCUUCUCGGGAGCUCCAGCACAGUGAAAUGGACUUAAGGGCAGAGCAA [G5C C6U G8C C9U U10C A37U G38U] 0.0

Param item: AGUUUCGGUUGGGAGCUCCAGCACAGUGAAAUGGACAGAAGGGCAGAGCAA [G5U U7G C9U] 0.0

Param item: AGUUCGCGCCGGGAGCGGCAGCACAGUGAAAUGGACAGAAGGGCAGAGCAA [G5C C6G U7C U10C U17G C18G] 1.0

Param item: AGUUCUUCUCGGGAGCUCCAGCACAGUGAAAUGGACAGAAGGGGUGAGCAA [G5C C6U G8C C9U U10C C44G A45U] 1.0

Param item: AGUUAAGUAUGGGAGCUCCAGCACAGUGAAAUGGACAGAAGGGCAGAGCAA [G5A C6A U7G G8U C9A] 0.0

Param item: AGUUUCUUUUGGGAGCUCCAGCACAGUGAAAUGGACAGAAGACCAGAGCAA [G5U G8U C9U G42A G43C] 1.0

Param item: AGUUAGGUUUGGGAGCUCCAGCACAGUGAAAUGGACAGAAGGGCAGAGCAA [G5A C6G U7G G8U C9U] 0.0

Param item: AGUUGAAGAAGGGAGCUCCAGCACAGUGAAAUGGACAUUAGGGCAGAGCAA [C6A U7A C9A U10A G38U A39U] 0.0

Param item: AGUUCGCGCCUGGAGCUCCAGCACAGUGAAAUGGACAGAAGGGCAGAGCAA [G5C C6G U7C U10C G11U] 1.0

Param item: AGACGAAGAAGGGAGCUCCAGCACAGUGAAAUGGACAGAAGGGCAGAGCAA [U3A U4C C6A U7A C9A U10A] 1.0

Param item: AGUUAGGGAUGGGAGCUCCAGCACAGUGAAAUGGACAGAAGGGCAGUACAA [G5A C6G U7G C9A A47U G48A] 0.0

Param item: AGUUGCUGCUGGGAGCUCCAGCACAGUGAAAUGGACCCAAGGGCAGAGCAA [A37C G38C] 0.0

Param item: AGUUAGGGAUGGGAGCUCCAGCACAGUGAAACUGACAGAAGGGCAGAGCAA [G5A C6G U7G C9A U32C G33U] 0.0

Param item: AGUUACCACCGGGAGCUCCAGCACAGUGAAAUGGACAGCGGGGCAGAGCAA [G5A U7C G8A U10C A39C A40G] 1.0

Param item: AGUUGAAGAAGGGAGCUCCAGCACAGUGAGAUGGACAGAAGGGCAGAGCAA [C6A U7A C9A U10A A30G] 0.0

Param item: AGUUACCUGCGGGAGCUCCAGCACAGUGAAAUGGACAGAAGGGCAGAGCAA [G5A U7C G8U C9G U10C] 1.0

Param item: AGUUAGGGAUGGGAGCUAUAGCACAGUGAAAUGGACAGAAGGGCAGAGCAA [G5A C6G U7G C9A C18A C19U] 0.0

Param item: AGUUCACACAGGGAGCUCCAGCACAGUGAAAUACACAGAAGGGCAGAGCAA [G5C C6A U7C G8A U10A G33A G34C] 0.0

Param item: AGUUCACAGCGGGAGCUCCAGCACAGUGAAAUGGACAGAAGGGCAGAGCAA [G5C C6A U7C G8A C9G U10C] 1.0

Param item: AGUUCGCGCCGGGAGCUCCAGCACAGUGGGAUGGACAGAAGGGCAGAGCAA [G5C C6G U7C U10C A29G A30G] 1.0

Param item: AGUUAGGGAUGAGAGCUCCAGCACAGUGAAAUGGACAGAAGGGCAGAGCAA [G5A C6G U7G C9A G12A] 0.0

Param item: AGUUAUAUAUGGGAGCUCUCGCACAGUGAAAUGGACAGAAGGGCAGAGCAA [G5A C6U U7A G8U C9A C19U A20C] 0.0
